Please go through the items and note down their Kd.
# ASSAYED SYSTEM: T1, AFP158/HLA-A*02:01 complex (human)
# T1 construct: flowed as analyte in SPR
# TEST SUMMARY: SPR, crude scFv captured, pMHC analyte;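 further: complex injected at several concentrations over the chip, association phase then running buffer for dissociation, KD derived from on- and off-rates computed from both curves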
Number only, in nM; omit the unit.

Please look up its Kd: AS170036 VL1VH1-57H98I108A (scFv, also called 61-AS170036 VL1VH1-57H98I108A) scFv: QSALTQPRSVSGSPGQSVTISCAGTSSDVGSENYVSWYQQHPGKAPKLMIYQVNKRASGVPDRFSGSKSGNTASLTISGLQAEDEADYYCASYRSSDINIVFGGGTKLTVLGGGGSGGGGSGGGGSEVQLVESGGGLVQPGGSLRLSCAASGFTFSSYAMSWVRQAPGKGLEWVSTINSGTGHPYYADSVKGRFTISRDNSKNTLYLQMNSLRAEDTAVYYCAKNFFDGSWFLAPPAMDYWGQGTLVTVSSHHHHHH
3.3

Please look up its Kd: AS170036 VL1VH1-56N98I108S (scFv, also called 54-AS170036 VL1VH1-56N98I108S) scFv: QSALTQPRSVSGSPGQSVTISCAGTSSDVGSENYVSWYQQHPGKAPKLMIYQVNKRASGVPDRFSGSKSGNTASLTISGLQAEDEADYYCASYRSSDINIVFGGGTKLTVLGGGGSGGGGSGGGGSEVQLVESGGGLVQPGGSLRLSCAASGFTFSSYAMSWVRQAPGKGLEWVSTINSGTNSPYYADSVKGRFTISRDNSKNTLYLQMNSLRAEDTAVYYCAKNFFDGSWFLSPPAMDYWGQGTLVTVSSHHHHHH
10

Please look up its Kd: AS170036 VL1VH1-56N98I108A (scFv, also called 52-AS170036 VL1VH1-56N98I108A) scFv: QSALTQPRSVSGSPGQSVTISCAGTSSDVGSENYVSWYQQHPGKAPKLMIYQVNKRASGVPDRFSGSKSGNTASLTISGLQAEDEADYYCASYRSSDINIVFGGGTKLTVLGGGGSGGGGSGGGGSEVQLVESGGGLVQPGGSLRLSCAASGFTFSSYAMSWVRQAPGKGLEWVSTINSGTNSPYYADSVKGRFTISRDNSKNTLYLQMNSLRAEDTAVYYCAKNFFDGSWFLAPPAMDYWGQGTLVTVSSHHHHHH
3.6

From: patent US20240279318A1
